Reported melting point values are given for each entry in this list.

{"compound": "N=C(N)c1ccc2cc(OC(=O)CC3CCCCC3)ccc2c1", "melting point": "203 to 205 °C"}
{"compound": "COc1ccc(-c2nc3cc(Cl)c(Cl)cc3n2C(=O)OCc2ccccc2)cc1NS(=O)(=O)c1cccs1", "melting point": "195 to 198 °C"}
{"compound": "CCCCCCCCCCn1c(C)cc(C)c(C(=O)O)c1=O", "melting point": "67.5 to 72 °C"}
{"compound": "Nc1nnc2ccccc2n1", "melting point": "208 to 210 °C"}
{"compound": "Cc1ccc2c(c1)c(=O)c1c(cnn1C)n2CCCNS(C)(=O)=O", "melting point": "179 °C"}
{"compound": "C=CC(C)(C)C(O)(COc1ccc(-c2ccccc2)cc1)Cn1cncn1 (stereo unspecified)", "melting point": "85 to 87 °C"}
{"compound": "CC(C)(C)OC(=O)N1CCC[C@@H](O)[C@H](C(=O)O)C1", "melting point": "98.5 to 102 °C"}
{"compound": "CNc1cccc(OC)c1N", "melting point": "60 to 61 °C"}
{"compound": "CN1CC(=O)Nc2ccncc2C1=O", "melting point": "267 to 268 °C"}
{"compound": "Cc1cn([C@H]2CC[C@@H]3CC(=O)N[C@H]2C3)c(=O)n(COCc2ccccc2)c1=O", "melting point": "160 to 162 °C"}
{"compound": "CN1C(=O)c2cccc3c(S(C)(=O)=O)ccc1c23", "melting point": "216 to 218 °C"}

###

As shown below, each of these compounds has a reported melting point value.

{"compound": "COC1=C(OC)C(=O)c2c(cccc2[N+](=O)[O-])C1=O", "melting point": "156 to 157 °C"}
{"compound": "COc1ccc(Cl)cc1-n1c(-c2ccc(C(F)(F)F)cc2)n[nH]c1=S", "melting point": "275 to 280 °C"}
{"compound": "COc1cc(Cc2cnc(NC(C)=N)nc2N)cc(OC)c1OC", "melting point": "207 °C"}
{"compound": "CCCOC(=O)C1=C(N)NC(C)=C(C(=O)OC)C1c1cccc([N+](=O)[O-])c1 (stereo not given)", "melting point": "155 °C"}
{"compound": "Nc1ncnc2cccc(Oc3ccc(F)cc3)c12", "melting point": "188 to 190 °C"}
{"compound": "CC(C)(C)OC(=O)NC(Cc1ccc(OCc2ccccc2)cc1)CN1CCOCC1 (stereo not given)", "melting point": "98 to 99 °C"}
{"compound": "Nc1nccn2c(C3CCC3)nc(-c3ccccc3)c12", "melting point": "164 to 166 °C"}
{"compound": "CNC(=O)Nc1ccc(Cl)c(Cl)c1", "melting point": "156 °C"}
{"compound": "Cc1ccc2c(c1)C(=O)N(C)Cc1c(C(N)=NO)ncn1-2", "melting point": "227 to 229 °C"}
{"compound": "Cc1cc(C(=O)C(C#N)C(=O)Nc2ccccc2)c(C)n1C (stereo not given)", "melting point": "158 to 160 °C"}
{"compound": "CC(C)=CCCC(C)=CCOc1ccc(C(=O)Nc2cccnc2)cc1", "melting point": "102 to 103 °C"}
{"compound": "O=C1C2=C(CCCC2)C(=O)N1c1cc([N+](=O)[O-])c(Cl)cc1F", "melting point": "152 to 155 °C"}
{"compound": "CCOc1csc2c(O)c(SC)cnc12", "melting point": "180 to 183 °C"}
{"compound": "CCN1c2ncccc2C(=O)N(C)c2cccnc21", "melting point": "130 to 132 °C"}
{"compound": "COc1ccc(SC2=C(C(=O)NO)CCC2=CCCc2ccccc2)cc1OC", "melting point": "44 to 46 °C"}
{"compound": "Cc1c(NC(=O)OCc2ccccc2)cccc1C(C[N+](=O)[O-])c1c[nH]c2cc(N3CCOCC3)ccc12 (stereo not given)", "melting point": "137 °C"}
{"compound": "COc1cc(C(=O)NS(=O)(=O)c2ccccc2)ccc1Cc1cn(C)c2ccc(NC(=O)OC3CCCC3)cc12", "melting point": "125 to 130 °C"}
{"compound": "Cc1ccc(N=C(Nc2ccc(C)cc2)ON2C(C)(C)CC(O)CC2(C)C)cc1", "melting point": "124 to 126 °C"}
{"compound": "Sc1nc2ccccc2n1Cc1c(Cl)cccc1Cl", "melting point": "234 to 235 °C"}
{"compound": "O=[N+]([O-])c1ccc(CCN2CCC(N3CCc4ccccc43)CC2)cc1", "melting point": "95 to 97 °C"}
{"compound": "COc1ccc(Cc2nc(-c3ccc(F)cc3)c(-c3ccc(S(C)(=O)=O)cc3)o2)cc1", "melting point": "123 to 124 °C"}
{"compound": "COc1ccc(N(CCCC(=O)O)C(=O)CCN(C(C)=O)c2c(C)cccc2C)cc1", "melting point": "90 to 92 °C"}
{"compound": "CSc1ccc(F)cc1C(=O)Cn1cccc1", "melting point": "133 to 134 °C"}
{"compound": "Clc1nc(N2CCOCC2)c2ncnc(Cl)c2n1", "melting point": "179 to 181 °C"}
{"compound": "COc1c(C)c(N2CCN(c3ccc(F)cc3)CC2)c(C)c2c1OC(C)C2 (stereo not given)", "melting point": "114 to 116 °C"}
{"compound": "CC1C2=C(CN=C(c3ccccc3Cl)c3cc(Cl)ccc32)C(=O)N1CC(N)=O (stereo not given)", "melting point": "221 to 222 °C"}
{"compound": "Cc1cnc(CCNC(=O)c2ccccc2NC(=O)c2cccc(C(F)(F)F)c2)[nH]1", "melting point": "168 to 172 °C"}
{"compound": "COC(=O)COc1ccc(SCc2cc(-c3ccc(Cl)cc3)on2)c2c1CCC2", "melting point": "112 to 114 °C"}
{"compound": "CCCCN(C(=S)NC)c1ccc(Cl)nc1", "melting point": "129 to 130 °C"}
{"compound": "ClCCCOc1cccc2c(OCCCCl)cccc12", "melting point": "219 °C"}
{"compound": "COCCn1cc(C(=O)O)c2c(Cl)cccc21", "melting point": "142 to 145 °C"}
{"compound": "CC(C)C1(C#N)c2ccccc2C=CN1C(=O)c1ccccc1 (stereo not given)", "melting point": "124 to 126 °C"}
{"compound": "CC(C)C(NC(=O)OCc1ccccc1)C(=O)NC(Cc1ccc(OCCN2CCOCC2)cc1)C(=O)C(F)(F)C(=O)NCc1ccccc1 (stereo not given)", "melting point": "142 °C"}
{"compound": "Cc1cc(C(C)(C)C)c(O)c(C)c1COC(=O)c1ccc(C(=O)OCc2c(C)cc(C(C)(C)C)c(O)c2C)cc1", "melting point": "227 to 230 °C"}
{"compound": "COCC1COc2cc3ncnc(Nc4cccc(Cl)c4)c3cc2O1 (stereo not given)", "melting point": "277 to 282 °C"}
{"compound": "NC(=O)c1ccc(OCCNCC(O)c2ccccc2)cc1O (stereo not given)", "melting point": "141 to 142 °C"}
{"compound": "C[C@H](NC(=O)[C@H](Cc1ccccc1)NC(=O)CS)C(=O)O", "melting point": "172 to 174 °C"}
{"compound": "OC(c1cccc(C(F)(F)F)c1)C1CCN(CCc2ccccc2)CC1 (stereo not given)", "melting point": "143 to 147 °C"}
{"compound": "O=c1c(CCCCc2ccccn2)cc2cccnc2n1-c1cccc([N+](=O)[O-])c1", "melting point": "163 to 165 °C"}
{"compound": "CCCOc1ccccc1-c1nc(NCC)cc(=O)[nH]1", "melting point": "187 to 188 °C"}
